Test system: PPARg:RXRa 270nM:90nM, anti-RXR (NR concentration 270 nM, RXRa partner concentration 90 nM)
Protocol summary: PBM binding z-score (relative to random genomic background probes); higher = stronger binding; sequences stand for … in GC…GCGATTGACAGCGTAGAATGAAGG
Give measured PBM binding z-score for each item. Keep answers brief.
No unit in the answer, only the number.

query: Tell me PBM binding z-score reported for ACTCGGAGGAAAAAGGTCAGAGCTACGCCAGTGA
result: 3.2

query: Determine from records and report PBM binding z-score for GCTAGTTGGTCATTAAAAGGTCACACACCGGTCG
result: 3.77

query: // Input: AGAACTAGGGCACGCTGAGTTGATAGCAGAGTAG . Output its PBM binding z-score only.
result: 4.47

query: Return value of PBM binding z-score for input AGTCAAAGTTCAGGACGAGGTAACGTATAGCACG , no commentary.
result: 5.09

query: Hello, please tell me recorded PBM binding z-score for this one: CAGCCTAGGTCAGGGCCAGTAGAGGAGGAACGTT
result: 0.833

query: Please give measured PBM binding z-score of the following entry: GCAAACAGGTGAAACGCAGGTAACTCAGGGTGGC
result: 0.158

query: Give me measured PBM binding z-score, please, for this sequence: CCTTACGGGCCAAGGTTATAGCACGGGTGGTACG
result: 0.597

###

Test system: VDR homodimer (NR concentration 270 nM)
Protocol summary: PBM binding z-score (relative to random genomic background probes); higher = stronger binding; sequences stand for … in GC…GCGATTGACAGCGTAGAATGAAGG
Parameter measured: PBM binding z-score
Response field accepts a number only; no unit should be typed.

query: Give recorded PBM binding z-score. CGAACGAGGGCATAAGTTGATAGCAAATGCCGAT
result: 1.04

query: Look up and report measured PBM binding z-score for this entry: CCTTACGGGTCACACCAGGTTATAGCATCGGAGT
result: 1.61

query: Report PBM binding z-score for CAAACTAGGTCACCGGTAGGTCAAAGTCCGCATG
result: 2.2

query: Give the reported value of PBM binding z-score for this record: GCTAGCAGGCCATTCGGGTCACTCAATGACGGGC
result: 1.2

query: Give me measured PBM binding z-score, please, for this sequence: CCAACTGGGCCATCAGGTCATTGATATCAACGTT
result: 2.04

query: Quote PBM binding z-score reported for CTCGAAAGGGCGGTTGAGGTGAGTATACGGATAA please.
result: 0.0137

query: Please list PBM binding z-score recorded for the sequence TGAATGAGGTTAAAGATCAGGGAACGTGGCGTCG
result: 0.484

query: State, in one line, measured PBM binding z-score of CTACCAACGTGAACAAGGTCGTTGATTACTATTC
result: 1.88

query: Report PBM binding z-score, nothing else, for this sequence: ATCTCTAGGTATAGATAGTTCAGTGAATGCAAAT
result: 0.864

query: Input TCTGCTAGGTCAACGATGGTCAGCTTATCTGCTA , output reported PBM binding z-score.
result: -0.342

query: Identify PBM binding z-score associated with the sequence CCTACTGGGCCAAAGGTCATTAATTCCAATGCTC
result: 2.77

query: Determine its reported PBM binding z-score: GCTATTAGTTGAAAGGGCACCCGAATGATTCTCG
result: 0.843

query: Identify the reported PBM binding z-score for the following entry. TAGCCTAGGTCATGGGCAAGTATACCACGCGAAC
result: 0.341

query: Respond only with PBM binding z-score recorded for AGAATGAGGTTATACGTAGATCATGGAAGAAAGT
result: 0.975

query: Consider the sequence TCGAGTACGTTAGTCGGGGCATTCAGCCAACATA and give its recorded PBM binding z-score.
result: 1.51

query: Let me know recorded PBM binding z-score for CCGACTGGGGCAAGGCTACCATAACGCACAGCCA , thanks.
result: -0.136

query: State, in one line, measured PBM binding z-score of TTATATAGGTAAATGCTAGGTGAAAGTCCGATCT
result: 0.705

query: Provide measured PBM binding z-score value, entry: ATCTCTAGGTAAGACTCTGTTCAGTGAAGAACGC
result: -0.00157

query: Give a short answer stating reported PBM binding z-score for CGAACGAGGGTATGAGTTGATAGCAAATGCCGAT .
result: 0.345

query: Output PBM binding z-score of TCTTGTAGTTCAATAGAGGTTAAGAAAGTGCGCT
result: 1.59

query: Give the reported PBM binding z-score for this sequence. GCGACTGGGGCCAAGCAGGTTACCATAAGGTTGG
result: 0.051

query: Please supply the value of reported PBM binding z-score for the item GCTAGTTGGTCAGTAAAAGGCCACACACCGGTCG
result: -0.584

query: Please report PBM binding z-score for the following sequence: ACTTACGGGTCAACGAGGTTATAACACGCGTATA
result: 4.13

query: Provide measured PBM binding z-score value, entry: TAGCCTAGGTCATTCGGCCAGTATAGTACGCATC
result: 1.6

query: State, in one line, measured PBM binding z-score of ATCTCTAGGTATAAGTTCAGTGAATCCCGAGGAT
result: 2.79

query: Look up and state reported PBM binding z-score for TCGAGTAGGTTAGGCGGGGCATTCAGCCAACATA
result: 0.0165

query: Query PBM binding z-score for CGTCCAAGGTCAATGCTACGTCAGTGAAAGCATT
result: 2.18

query: Supply reported PBM binding z-score belonging to this sequence: GATACAGGGTCAGCTAGAGGCCAGACTATGGAAA
result: 0.781

query: Check the records and state PBM binding z-score for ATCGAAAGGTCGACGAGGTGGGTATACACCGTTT
result: 0.638

query: Identify measured PBM binding z-score associated with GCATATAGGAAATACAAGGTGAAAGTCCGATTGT
result: -0.126

query: Answer with reported PBM binding z-score of CATACAGGCTCAGCTAGGCCAGAGTAGGGACGGC
result: -0.751

query: Retrieve PBM binding z-score measured for GCTGCTAGGTCAGGTTGGTAAGCTAACGGGTACG and print it.
result: 0.193

query: Item CCTACTGGGCCATTCAGAGGTCAGTGATCATATG : provide PBM binding z-score
result: 1.13

query: Return PBM binding z-score (reported value) for this sequence: CGTCCAAGGTCAGCAGGTCAGCGAAAGCGACGTG
result: 1.83

###

Test system: PPARg:RXRa DBDmut IVT, anti-RXR (DBD mutation: RXRa K156A/R161A, NR concentration 270 nM, RXRa partner concentration 90 nM)
Protocol summary: PBM binding z-score (relative to random genomic background probes); higher = stronger binding; sequences stand for … in GC…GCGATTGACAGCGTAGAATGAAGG
Classes based on PBM binding z-score: bottom range: < 0.6; center range: ≥ 0.6 and < 4; top range: ≥ 4

query: Exam item: assign CCTAGTGGGCCACGAAAGGTCATTGATTCAGTGA to the correct category.
result: top range

query: Bin this entry: TCTGCTATGTCAGTTGGTCAGCTAACGAGCTGCC
result: center range

query: Bin this entry: TCATATACGTAAAAGGTGAAAGTCGGTGTGGTAA
result: center range

query: Kindly state the category for this sequence: ATATGTAGGTTAGCTGCGGTCATTCAGACTAGGC
result: top range

query: Band of GCTTACGGTTCAAAGGTTATAGCATGAATAGAAT ?
result: bottom range

query: Into which bin does this sequence go? ATCTCTAGGTAACCAAGTTCAGTTAATGCCGAAC
result: center range

query: Form field 'band' for ATCGTAAGGTCGAAGGTGAGTATACCCACCCGAA
result: bottom range

query: Which of the defined bands does the recorded PBM binding z-score of CGTCAAAGTTCAACGAAGGTAACGTAAAGCACGC sit within?
result: center range

query: For this sequence, which bin applies? AGTCAAAGTTCACTAGGTAAGGTAAGATTCAGCT
result: center range

###

Hi there, I'd appreciate the recorded PBM binding z-score for every entry that follows.
System: PPARg DBDmut:RXRa IVT, anti-PPARg (DBD mutation: PPARg1 K132A/R137A, NR concentration 270 nM, RXRa partner concentration 90 nM)
Protocol summary: PBM binding z-score (relative to random genomic background probes); higher = stronger binding; sequences stand for … in GC…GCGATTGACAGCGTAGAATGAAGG
Please respond with just the number, no unit label.

query: Given the sequence AGTCAAAGTTAATCTAGGTAACGTAAGATATGCT , write its reported PBM binding z-score.
result: 1.49

query: Hello, please tell me recorded PBM binding z-score for this one: CCTCGGAGGACAACGGGAGGTCAGAGCTGCCAGA
result: -1.39

query: Entry TCTTGTAGATCAATAGAGGTTAAGCAAGTGCGCT needs its PBM binding z-score filled in; supply it.
result: 0.792

query: Tell me its PBM binding z-score given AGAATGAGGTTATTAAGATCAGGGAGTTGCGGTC as the entry.
result: 0.214

query: Look up PBM binding z-score of TCATATAGGTAATACAGATGAAAGTCGGCATCTA and report it.
result: 1.22

query: Give recorded PBM binding z-score. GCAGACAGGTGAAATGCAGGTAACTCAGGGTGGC
result: -0.233

query: Recall and state the measured PBM binding z-score for AGAATGAAGTTAAGATCAGGGAAACAGAATACAT .
result: 0.14

query: Please report PBM binding z-score for the following sequence: CCAGAGAGGTGAAAGGTAACTCAGTCTGGTACGC
result: 0.0614

query: State its PBM binding z-score: AGAATGAGGTTAAGATCACGGAAACAGAATACAT
result: 1.28

query: Identify the reported PBM binding z-score for the following entry. CCTACTGGGCCAAGGTCACTGATCAGTCAAAGCA
result: -0.183

query: Consider the sequence GCATATAGGTAATACCAGGTGAAAGTCCGATTGT . State its measured PBM binding z-score.
result: 0.784

query: Tell me measured PBM binding z-score for AGAATGAGGTTACCGAAGATCAGGGAAACGCTTG please.
result: 0.906

query: Could you please provide reported PBM binding z-score for CAAACTAGGTCACAGAGGTCAAAGTACGTGCGTA ? Thanks!
result: 3.28

query: Provide only the value of recorded PBM binding z-score for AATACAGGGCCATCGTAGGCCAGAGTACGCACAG
result: 0.846

query: Look up and report measured PBM binding z-score for this entry: ATATGAAGGTTAAGGGTCATTCAGGTTGGTTCGC
result: 1.32

query: Query PBM binding z-score for TCATATAGGTAAAAGGTGAAAGGCGGTGTGGTAA
result: 3.35

query: For the sequence AGAAGGAGGTTATTAAGATCAGGGAATTGCGGTC , report PBM binding z-score.
result: 0.512

query: Could you please provide reported PBM binding z-score for CCGAGTAGGCTATGGGGCATTCAGGCAACGGTGA ? Thanks!
result: -0.695

query: Identify the reported PBM binding z-score for the following entry. ATCTCTAGGTAACCAAGTTCGGTGAATGCCGAAC
result: 1.06

query: Give a short answer stating reported PBM binding z-score for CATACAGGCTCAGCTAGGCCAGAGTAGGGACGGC .
result: 0.0955

query: Assign PBM binding z-score to the following record: ATCTCTAGGTAAAGATAGTTTAGTGAATGCAAAT
result: 1.07

query: Determine its reported PBM binding z-score: TCTGCTAGATCAACGATGGTCAGCTAATCTGCTA
result: -0.179

query: Return the recorded PBM binding z-score value; entry: TAGCGTAGGTCATGCGGGCCAGTATAGTGTCGGC
result: 0.502

query: Using known records, supply PBM binding z-score for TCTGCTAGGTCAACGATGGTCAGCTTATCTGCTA
result: 2.31

query: Dear colleague, please send me the reported PBM binding z-score for ACCTCTAGGTAAAGTTCAGTGAAAGATCGATAGA when you can.
result: -0.268

query: Provide one value: measured PBM binding z-score of CCTATTAGTCGACCATAAGGGCAACCGAAGCTCG
result: 0.93

query: Respond only with PBM binding z-score recorded for GCTTATAGATCAAGGTTAAGAAAGACTAAGCTAA
result: 0.643

query: Look up PBM binding z-score of TCAGCCAGGTGAAGGTAACTCAGGTACGCAGTCG and report it.
result: -0.394

query: For the sequence TCATATAGGTAAACAGGTGAAATTCCGTAAGTTA , report PBM binding z-score.
result: 1.27

query: Please look at this sequence and report its PBM binding z-score: CAGCCTAGGTCAGGGCCAGAATAGGAGGAACGTT
result: -0.6
